Test system: A549
Test: Anticancer activity against human A549 cells assessed as increase in autophagosome level at 40 uM after 24 hrs by Western blot analysis
Format: functional, cell-based
Activity calls are given as the source filed them. No cut-off for these calls is given here.
Use one of these outcomes when replying: YES for active, NO for inactive

1) CCOC(=O)c1cc(-c2ccc(OC)cc2)nn1C/C(=N/O)c1ccc(OC)cc1
YES
2) CCOC(=O)c1cc(-c2ccc(OC)cc2)nn1C/C(=N/O)c1ccc(Cl)cc1
YES

Q: Entry "CCOC(=O)c1cc(-c2ccc(Cl)cc2)nn1C/C(=N/O)c1ccccc1" : call = ?
A: YES

Q: Tell me the assay call for "CCOC(=O)c1cc(-c2ccc(Cl)cc2)nn1C/C(=N/O)c1ccc(OC)cc1" please.
A: YES

Q: Recorded call for "CCOC(=O)c1cc(-c2ccccc2)nn1C/C(=N/O)c1ccc(OC)cc1" ?
A: NO
